B1: RPAIN (parent)
chain: ISEYEKSLQFDEKCLSIMLAEWEA

Variants of: B1
ASSAY_OVERVIEW: protein stability index of a GFP-peptide fusion (GPS, HEK-293T) (PSI 1-6); higher = more stable;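 further: lentivirally expressed fusions sorted by FACS into six bins by GFP to DsRed ratio, PSI derived from sequencing read proportions per bin multiplied by bin number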
DETAILS: c terminus: a fixed tail appended
# label = true if protein stability index >= 2 else false

# count of solved cases: 7
D11L; true
C14S; false
Q9F; true
L8D; true
Q9N; true
E3D; false
E5W; false

[in] Could you tell me if the measured protein stability index of C14D reaches 2 or more?
[out] true
